target: Casein kinase I isoform alpha (Homo sapiens, UniProt P48729); assay type: functional
Sequence (P48729 whole entry, canonical isoform): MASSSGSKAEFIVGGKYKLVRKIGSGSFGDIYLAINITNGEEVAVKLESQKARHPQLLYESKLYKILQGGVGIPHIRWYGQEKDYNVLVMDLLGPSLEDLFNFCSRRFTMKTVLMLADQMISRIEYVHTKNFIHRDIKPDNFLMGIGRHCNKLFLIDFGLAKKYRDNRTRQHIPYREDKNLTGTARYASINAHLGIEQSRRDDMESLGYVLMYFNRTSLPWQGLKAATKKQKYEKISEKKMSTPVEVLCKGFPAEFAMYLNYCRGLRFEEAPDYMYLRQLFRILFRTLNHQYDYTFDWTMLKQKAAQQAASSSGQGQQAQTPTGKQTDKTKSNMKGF
Calls of active or inactive are those of the source.
Entries and their Ki values follow.
OBSERVED_PROPERTY: Ki

>  <SMILES_STRING>
Cc1ccc2nccc(NC(=O)Nc3cccc(C(F)(F)F)n3)c2c1

>  <RESULT>
> 5.01 µM (inactive)

$$$$
>  <SMILES_STRING>
COc1cc2c(cc1F)C(c1ccccc1Cl)=Nc1c(n[nH]c1C)N2

>  <RESULT>
> 5.01 µM (inactive)

$$$$
>  <SMILES_STRING>
Nc1nnc2cccc(Cl)n12

>  <RESULT>
79.4 µM (active)

$$$$
>  <SMILES_STRING>
Cc1nn(C)c2sc3c(=O)[nH]cnc3c12

>  <RESULT>
50.1 µM (active)

$$$$

---

assay: C. albicans growth with fluconazole, confirmation, fluorescence, retest (AID 2467); assay type: functional, cell-based
Calls of active or inactive are those of the source.
Entries and their EC50 values follow.
OBSERVED_PROPERTY: EC50

>  <SMILES_STRING>
O=C1Nc2ccccc2/C1=C/C(=O)c1cccs1

>  <RESULT>
1.75 µM (active)

$$$$
>  <SMILES_STRING>
Cc1nc(-n2nc3c(c2O)CCCC3)[nH]c(=O)c1Cc1ccccc1

>  <RESULT>
0.554 µM (active)

$$$$
>  <SMILES_STRING>
Cc1cc(SCC(=O)N/N=C/c2ccc(O)c(O)c2O)c(C)cc1Br

>  <RESULT>
1.45 µM (active)

$$$$
>  <SMILES_STRING>
O=C(NNC(=O)C12CC3CC(CC(C3)C1)C2)c1cnccn1

>  <RESULT>
> 38 µM (not active)

$$$$
>  <SMILES_STRING>
COC(=O)c1cc(C)sc1NC(=O)c1cccnc1

>  <RESULT>
> 38 µM (not active)

$$$$
>  <SMILES_STRING>
COc1cc(/C=C(\C#N)c2nc3ccccc3s2)cc([N+](=O)[O-])c1O

>  <RESULT>
> 38 µM (not active)

$$$$

---

target: Nucleotide-binding oligomerization domain-containing protein 2 (Homo sapiens); experiment: NOD2 signaling inhibitors, cell-based, luminescence, uHTS, HEK293 (AID 1566); format: functional
Sequence (Q9HC29 whole entry, the tested form may be a part): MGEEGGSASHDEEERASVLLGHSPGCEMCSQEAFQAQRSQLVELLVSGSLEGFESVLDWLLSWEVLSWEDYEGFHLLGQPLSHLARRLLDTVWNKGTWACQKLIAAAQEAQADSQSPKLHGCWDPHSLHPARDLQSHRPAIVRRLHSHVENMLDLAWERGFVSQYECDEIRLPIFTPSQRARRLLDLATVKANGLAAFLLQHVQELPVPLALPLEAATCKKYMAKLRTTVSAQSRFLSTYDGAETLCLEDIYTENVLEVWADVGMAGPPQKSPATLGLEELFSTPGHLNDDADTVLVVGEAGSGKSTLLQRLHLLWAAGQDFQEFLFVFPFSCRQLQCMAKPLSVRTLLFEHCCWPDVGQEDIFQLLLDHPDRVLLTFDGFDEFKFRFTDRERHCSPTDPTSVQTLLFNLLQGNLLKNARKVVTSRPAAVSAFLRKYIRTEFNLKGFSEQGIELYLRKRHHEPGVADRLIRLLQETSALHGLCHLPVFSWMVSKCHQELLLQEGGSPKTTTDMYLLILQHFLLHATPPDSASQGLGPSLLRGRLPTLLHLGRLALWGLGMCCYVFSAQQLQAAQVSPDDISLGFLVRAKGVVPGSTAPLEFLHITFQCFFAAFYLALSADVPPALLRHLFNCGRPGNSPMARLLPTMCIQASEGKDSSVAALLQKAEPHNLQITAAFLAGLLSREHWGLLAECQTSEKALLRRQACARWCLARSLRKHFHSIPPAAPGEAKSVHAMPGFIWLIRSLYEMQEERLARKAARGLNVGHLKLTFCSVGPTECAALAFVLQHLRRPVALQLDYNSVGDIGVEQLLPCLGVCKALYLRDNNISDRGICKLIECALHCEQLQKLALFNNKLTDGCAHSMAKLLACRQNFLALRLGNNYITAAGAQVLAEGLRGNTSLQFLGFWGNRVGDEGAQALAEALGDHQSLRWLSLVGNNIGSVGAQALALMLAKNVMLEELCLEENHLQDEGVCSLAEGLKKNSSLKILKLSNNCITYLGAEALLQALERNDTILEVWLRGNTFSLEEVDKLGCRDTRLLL
Active and inactive are the calls of the source.
Outcomes: label 1 (active), label 0 (inactive)

>  <COMPOUND>
Cc1ccc(NS(=O)(=O)c2ccc3c(c2)C(=O)c2ccccc2C3=O)c(C)c1

>  <ASSIGNED_CLASS>
label 0

$$$$
>  <COMPOUND>
COc1ccccc1-c1nc(C#N)c(N2CCN(c3cccc(Cl)c3)CC2)o1

>  <ASSIGNED_CLASS>
label 1

$$$$
>  <COMPOUND>
COc1ccc(CNC(=O)c2ccc3ccccc3n2)cc1OC

>  <ASSIGNED_CLASS>
label 1

$$$$
>  <COMPOUND>
COCC(C)n1c(C)cc(C(=O)COc2ccc(C)nc2[N+](=O)[O-])c1C (configuration not stated)

>  <ASSIGNED_CLASS>
label 1

$$$$
>  <COMPOUND>
Cc1ccc(C(C)C)c(OCc2ccc(C(=O)N/N=C/c3cccc(O)c3O)cc2)c1

>  <ASSIGNED_CLASS>
label 0

$$$$
>  <COMPOUND>
O=C(Nc1ccc(Cl)cn1)c1ccc(Br)c(S(=O)(=O)N2CCCCC2)c1

>  <ASSIGNED_CLASS>
label 0

$$$$
>  <COMPOUND>
Cc1ccc(NC(=O)Cc2cc(C(=O)O)c3ccccc3n2)c(C)c1

>  <ASSIGNED_CLASS>
label 1

$$$$

Attribution: ChEMBL document CHEMBL1201862
